biological target: Gamma-aminobutyric acid receptor subunit alpha-1 (Rattus norvegicus); type: functional; also: assay procedure not described here
Sequence (P62813 whole entry): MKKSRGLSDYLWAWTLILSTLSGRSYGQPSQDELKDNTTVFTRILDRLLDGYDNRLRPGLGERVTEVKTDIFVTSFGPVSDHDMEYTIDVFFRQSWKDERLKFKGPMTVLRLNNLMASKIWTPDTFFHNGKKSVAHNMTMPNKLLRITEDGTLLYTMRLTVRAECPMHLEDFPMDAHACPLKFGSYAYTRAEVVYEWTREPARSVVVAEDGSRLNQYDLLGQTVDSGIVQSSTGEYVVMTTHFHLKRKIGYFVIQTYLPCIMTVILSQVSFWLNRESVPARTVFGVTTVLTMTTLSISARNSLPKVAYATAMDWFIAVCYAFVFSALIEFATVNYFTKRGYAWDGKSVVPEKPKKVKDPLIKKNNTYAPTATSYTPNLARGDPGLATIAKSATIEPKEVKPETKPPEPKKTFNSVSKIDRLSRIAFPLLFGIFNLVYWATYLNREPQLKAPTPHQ
AC50 by entry:
recorded-endpoint: AC50

{"columns": ["molecule", "recorded-endpoint", "measured-value"],
 "data": [
  ["CC(C)[N+](C)(CCC(C(N)=O)(c1ccccc1)c1ccccc1)C(C)C [ISOPROPAMIDE]", "AC50", "> 10 µM"],
  ["Cc1cc2c(OCC(CNC(C)(C)C)OC(=O)c3ccccc3)cccc2[nH]1 (stereo not given)", "AC50", "> 30 µM"],
  ["Cc1cc(-c2ccccc2)nnc1NCCN1CCOCC1", "AC50", "> 10 µM"],
  ["CCN(CC)CCNC(=O)c1cc(Cl)c(N)cc1OC [METOCLOPRAMIDE]", "AC50", "> 10 µM"],
  ["C#CC1(OC(N)=O)CCCCC1 [ETHINAMATE]", "AC50", "> 10 µM"],
  ["NS(=O)(=O)c1cc2c(cc1Cl)NCNS2(=O)=O [HYDROCHLOROTHIAZIDE]", "AC50", "> 10 µM"],
  ["CC1=CC(=O)c2ccccc2C1=O", "AC50", "> 10 µM"],
  ["CC(N)Cc1ccccc1 (stereo not given)", "AC50", "> 30 µM"],
  ["CN1CCN(C(=O)OC2c3nccnc3C(=O)N2c2ccc(Cl)cn2)CC1 (stereo not given)", "AC50", "0.093 µM"],
  ["CCCCN1CCCCC1C(=O)Nc1c(C)cccc1C (stereo not given)", "AC50", "> 30 µM"]
]}

====

AC50, Thromboxane A2 receptor (Homo sapiens): measured values

{"columns": ["molecule", "AC50"],
 "data": [
  ["CN1C(=O)CC(=O)N(c2ccccc2)c2cc(Cl)ccc21 [CLOBAZAM]", "> 10 µM"],
  ["CN1C(=O)CC(C)(c2ccccc2)C1=O (centres undefined) [METHSUXIMIDE]", "> 10 µM"],
  ["CC(C(=O)O)c1ccc(N2CC=CC2)c(Cl)c1 (centres undefined) [PIRPROFEN]", "> 30 µM"],
  ["COc1ccc(C(=O)N2CCN(c3ccc4c(c3)CCC(=O)N4)CC2)cc1OC [VESNARINONE]", "> 30 µM"],
  ["Cc1nc2ccc(CN(C)c3ccc(C(=O)N[C@@H](CCC(=O)O)C(=O)O)s3)cc2c(=O)[nH]1 [RALTITREXED]", "> 30 µM"],
  ["CN(C)CCCN1c2ccccc2Sc2ccccc21 [PROMAZINE]", "> 30 µM"],
  ["CCCC(CCC)C(=O)O[C@H]1C[C@H]2CC[C@@H](C1)[N+]2(C)C [ANISOTROPINE]", "> 30 µM"],
  ["CCCCC(C)(O)C/C=C/[C@H]1[C@H](O)CC(=O)[C@@H]1CCCCCCC(=O)OC (some centres undefined) [MISOPROSTOL]", "> 30 µM"],
  ["C1=Cc2cccc(OCC3CNCCO3)c2C1 (centres undefined) [INDELOXAZINE]", "> 30 µM"],
  ["CCCCCCCCCCCC[N+](C)(C)CCOc1ccccc1 [DOMIPHEN]", "> 30 µM"],
  ["COC(=O)C1=C(C)NC(C)=C(C(=O)OCC(C)C)C1c1ccccc1[N+](=O)[O-] (centres undefined) [NISOLDIPINE]", "> 10 µM"],
  ["CN1C(=O)CC(c2ccccc2)C1=O (centres undefined) [PHENSUXIMIDE]", "> 10 µM"],
  ["C[N+](C)(C)CCOC(N)=O [CARBAMOYLCHOLINE]", "> 10 µM"],
  ["COc1ccc2cccc(CCNC(C)=O)c2c1 [AGOMELATINE]", "> 30 µM"],
  ["CCN(CC)CCNC(=O)c1cc(Cl)c(N)cc1OC [METOCLOPRAMIDE]", "> 30 µM"],
  ["O=C(C[S+]([O-])C(c1ccccc1)c1ccccc1)NO (centres undefined)", "> 30 µM"],
  ["COc1c(N2CCNC(C)C2)c(F)cc2c(=O)c(C(=O)O)cn(C3CC3)c12 (centres undefined) [GATIFLOXACIN]", "> 10 µM"],
  ["NC(=O)c1cnccn1 [PYRAZINAMIDE]", "> 30 µM"],
  ["C[C@@H]1O[C@@H]1P(=O)(O)O [FOSFOMYCIN]", "> 10 µM"],
  ["CN1CCC2=C(C1)C(c1ccccc1)c1ccccc12 (centres undefined) [PHENINDAMINE]", "> 10 µM"],
  ["CN1CCc2cccc3c2[C@H]1Cc1ccc(O)c(O)c1-3 [APOMORPHINE]", "> 30 µM"],
  ["O=C(OCCN1CCOCC1)c1cccnc1Nc1cccc(C(F)(F)F)c1 [MORNIFLUMATE]", "> 30 µM"],
  ["CCC[C@@H]1C[C@@H](C(=O)N[C@@H]([C@H]2O[C@H](SC)[C@H](O)[C@@H](O)[C@H]2O)[C@H](C)Cl)N(C)C1 [CLINDAMYCIN]", "> 30 µM"],
  ["CN1CCCN=C1COC(=O)C(O)(c1ccccc1)C1CCCCC1 (centres undefined) [OXYPHENCYCLIMINE]", "> 10 µM"]
]}

====

The following compounds are listed with their measured AC50 values.
biological target: 5-hydroxytryptamine receptor 2B (Homo sapiens, UniProt P41595); format: functional, cell-based; also: assay procedure not described here
Sequence (P41595 whole entry): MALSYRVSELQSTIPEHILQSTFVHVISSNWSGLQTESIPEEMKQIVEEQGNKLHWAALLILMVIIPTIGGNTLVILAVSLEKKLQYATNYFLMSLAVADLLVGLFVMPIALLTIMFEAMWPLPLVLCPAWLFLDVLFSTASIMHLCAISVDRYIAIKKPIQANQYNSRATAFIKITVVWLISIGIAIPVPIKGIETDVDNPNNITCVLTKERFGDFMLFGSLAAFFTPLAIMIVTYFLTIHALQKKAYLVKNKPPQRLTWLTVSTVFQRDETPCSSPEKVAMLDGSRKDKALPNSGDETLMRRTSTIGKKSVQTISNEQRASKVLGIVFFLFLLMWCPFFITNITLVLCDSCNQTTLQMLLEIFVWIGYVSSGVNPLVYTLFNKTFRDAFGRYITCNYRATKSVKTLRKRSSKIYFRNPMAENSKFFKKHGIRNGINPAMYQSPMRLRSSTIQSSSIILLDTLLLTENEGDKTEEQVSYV

{"columns": ["compound", "AC50"],
 "data": [
  ["CC(C)C(=O)Nc1ccc([N+](=O)[O-])c(C(F)(F)F)c1 [FLUTAMIDE]", "> 10 µM"],
  ["O=C1CN=C(c2ccccc2)c2cc(Cl)ccc2N1CC(F)(F)F [HALAZEPAM]", "> 30 µM"],
  ["Nc1ccc(/N=N/c2ccccc2)c(N)n1 [PHENAZOPYRIDINE]", "24 µM"],
  ["N[C@@H](CSCC(=O)O)C(=O)O [CARBOCYSTEINE]", "> 30 µM"],
  ["CCc1nn(CCCN2CCN(c3cccc(Cl)c3)CC2)c(=O)n1CCOc1ccccc1 [NEFAZODONE]", "1.1 µM"],
  ["Cc1cccc(C)c1NC(=O)C1CCCCN1C (configuration not stated) [MEPIVACAINE]", "> 30 µM"],
  ["C[N+](C)(C)CCOC(N)=O [CARBAMOYLCHOLINE]", "> 30 µM"]
]}

====

target: Delta-type opioid receptor (Homo sapiens, UniProt P41143); also: assay procedure not described here
Sequence (P41143 whole entry): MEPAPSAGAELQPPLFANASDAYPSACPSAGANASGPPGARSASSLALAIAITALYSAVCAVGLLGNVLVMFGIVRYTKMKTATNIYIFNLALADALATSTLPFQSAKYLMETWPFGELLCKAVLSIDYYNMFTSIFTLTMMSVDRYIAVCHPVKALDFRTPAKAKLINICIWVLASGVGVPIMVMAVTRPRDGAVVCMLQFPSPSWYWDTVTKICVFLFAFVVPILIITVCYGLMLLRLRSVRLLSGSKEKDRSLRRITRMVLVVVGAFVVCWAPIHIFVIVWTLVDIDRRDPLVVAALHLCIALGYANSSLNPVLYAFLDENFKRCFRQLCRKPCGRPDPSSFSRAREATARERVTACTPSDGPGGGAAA
Below is a list of entries, each paired with its recorded AC50 value.
recorded-endpoint: AC50

{"columns": ["molecule", "assay-system", "recorded-endpoint", "measured-value"],
 "data": [
  ["CC(Cc1ccccc1)NCCC(c1ccccc1)c1ccccc1 (stereo not given) [PRENYLAMINE]", "Delta-type opioid receptor (Homo sapiens, UniProt P41143)", "AC50", "> 30 µM"],
  ["CC(C)NNC(=O)c1ccncc1 [IPRONIAZID]", "Delta-type opioid receptor (Homo sapiens, UniProt P41143)", "AC50", "> 30 µM"],
  ["CC(C(=O)O)c1ccc(C(=O)c2cccs2)cc1 (stereo not given) [SUPROFEN]", "Delta-type opioid receptor (Homo sapiens, UniProt P41143)", "AC50", "> 30 µM"],
  ["O=C(Nc1ccccc1)OCC(CN1CCCCC1)OC(=O)Nc1ccccc1 (stereo not given) [DIPERODON]", "Delta-type opioid receptor (Homo sapiens, UniProt P41143)", "AC50", "> 10 µM"],
  ["NC[C@H]1CC[C@H](C(=O)O)CC1 [TRANEXAMIC ACID]", "Delta-type opioid receptor (Homo sapiens, UniProt P41143)", "AC50", "> 30 µM"],
  ["CC[C@H](C)C(=O)O[C@H]1C[C@H](O)C=C2C=C[C@H](C)[C@H](CC[C@@H](O)C[C@@H](O)CC(=O)O)[C@H]21 [PRAVASTATIN]", "Delta-type opioid receptor (Homo sapiens, UniProt P41143)", "AC50", "> 30 µM"],
  ["CC(C)NCC1CCc2cc(CO)c([N+](=O)[O-])cc2N1 (stereo not given) [OXAMNIQUINE]", "Delta-type opioid receptor (Homo sapiens, UniProt P41143)", "AC50", "> 30 µM"],
  ["O=C(O)Cc1cn(-c2ccccc2)nc1-c1ccc(Cl)cc1 [LONAZOLAC]", "Delta-type opioid receptor (Homo sapiens, UniProt P41143)", "AC50", "> 30 µM"],
  ["COC(=O)C1=C(C)NC(C)=C(C(=O)OC)C1c1ccccc1[N+](=O)[O-] [NIFEDIPINE]", "Delta-type opioid receptor (Homo sapiens, UniProt P41143)", "AC50", "> 30 µM"],
  ["Cc1ccc(-c2nc3ccc(C)cn3c2CC(=O)N(C)C)cc1 [ZOLPIDEM]", "Delta-type opioid receptor (Homo sapiens, UniProt P41143)", "AC50", "> 30 µM"],
  ["CC(=O)NS(=O)(=O)c1ccc(N)cc1 [SULFACETAMIDE]", "Delta-type opioid receptor (Homo sapiens, UniProt P41143)", "AC50", "> 30 µM"],
  ["CCN1CCC[C@H]1CNC(=O)c1cc(S(N)(=O)=O)ccc1OC [LEVOSULPIRIDE]", "Delta-type opioid receptor (Homo sapiens, UniProt P41143)", "AC50", "> 30 µM"],
  ["CCCCCCCCCCCC[N+](C)(C)CCOc1ccccc1 [DOMIPHEN]", "Delta-type opioid receptor (Homo sapiens, UniProt P41143)", "AC50", "> 30 µM"],
  ["CC(C)NCC(O)COc1ccc(COCCOC(C)C)cc1 (stereo not given) [BISOPROLOL]", "Delta-type opioid receptor (Homo sapiens, UniProt P41143)", "AC50", "> 10 µM"],
  ["[H]/N=C(/N)c1ccc(NCc2nc3cc(C(=O)N(CCC(=O)O)c4ccccn4)ccc3n2C)cc1 [DABIGATRAN]", "Delta-type opioid receptor (Homo sapiens, UniProt P41143)", "AC50", "> 30 µM"],
  ["COCC1=C(C(=O)OC(C)OC(=O)OC(C)C)N2C(=O)[C@@H](NC(=O)/C(=N\\OC)c3csc(N)n3)[C@H]2SC1 (stereo not given in full) [CEFPODOXIME PROXETIL]", "Delta-type opioid receptor (Homo sapiens, UniProt P41143)", "AC50", "> 30 µM"],
  ["C[C@H]1C[C@@H]2[C@H]([C@@H](O)C[C@@]3(C)[C@H]2CC[C@]3(O)C(=O)COC(=O)CCC(=O)O)[C@@]2(C)C=CC(=O)C=C12 [METHYLPREDNISOLONE HEMISUCCINATE]", "Delta-type opioid receptor (Homo sapiens, UniProt P41143)", "AC50", "> 30 µM"],
  ["CO/N=C(\\C(=O)N[C@@H]1C(=O)N2C(C(=O)[O-])=C(C[N+]3(C)CCCC3)CS[C@H]12)c1csc(N)n1", "Delta-type opioid receptor (Homo sapiens, UniProt P41143)", "AC50", "> 300 µM"],
  ["NC(CO)C(=O)NNCc1ccc(O)c(O)c1O (stereo not given) [BENSERAZIDE]", "Delta-type opioid receptor (Homo sapiens, UniProt P41143)", "AC50", "30 µM"],
  ["CCN(CC)CCOC(=O)c1ccc(N)cc1 [PROCAINE]", "Delta-type opioid receptor (Homo sapiens, UniProt P41143)", "AC50", "> 30 µM"],
  ["O=P(O)(O)C(O)(Cc1cccnc1)P(=O)(O)O [RISEDRONIC ACID]", "Delta-type opioid receptor (Homo sapiens, UniProt P41143)", "AC50", "> 30 µM"],
  ["C[N+](C)(C)CCOC(N)=O [CARBAMOYLCHOLINE]", "Delta-type opioid receptor (Homo sapiens, UniProt P41143)", "AC50", "> 30 µM"],
  ["CCC1(C2=CCCCCC2)C(=O)NC(=O)NC1=O [HEPTABARBITAL]", "Delta-type opioid receptor (Homo sapiens, UniProt P41143)", "AC50", "> 30 µM"],
  ["CC1=CC(=O)c2ccccc2C1=O [MENADIONE]", "Delta-type opioid receptor (Homo sapiens, UniProt P41143)", "AC50", "> 30 µM"],
  ["OCCN1CCN(CCCN2c3ccccc3C=Cc3ccccc32)CC1 [OPIPRAMOL]", "Delta-type opioid receptor (Homo sapiens, UniProt P41143)", "AC50", "> 30 µM"]
]}

Data origin: ChEMBL document CHEMBL5291721
